test system: CQ-resistant (W-2) strain of P. falciparum; experiment: 3H-adenosine incorporation, chloroquine-resistant P. falciparum; assay type: cell-based; details: Plasmodium falciparum, read-out: IC50 SINGLE DRUG
attribute-measured: pIC50
Numbers only, as −log10 of the molar value.

Prompt line: Which pIC50 value belongs to CCN(CC)CCCC(C)Nc1ccnc2cc(Cl)ccc12 (stereo not shown) [CQ, chloroquine] ?
Response line: 6.73

###

Tested on: CQ-resistant (W-2) strain of P. falciparum
Assay: 3H-adenosine incorporation, chloroquine-resistant P. falciparum
Format: cell-based
Conditions: Plasmodium falciparum, read-out: IC50 DRUG COMBINATION TT(3.0 uM) CQ(0.1 uM)
Procedure: Chloroquine and qinghaosu are commonly used antimalarial drugs. The dose (IC50) of each drug or each drug combination required to effect a 50% inhibition in the malarial activity of each strain was determined by establishing a dose response curve for each. FCMSU1/Sudan strain and cloned Indochina (W-2) strain of P. falciparum were used. […] The resulting culture was ready for addition to microtitration plates with ninety-six flat-bottom wells. […]
attribute-measured: pIC50
Give bare numbers, as −log10 of the molar value.

Prompt line: Consider the molecule shown here: CCN(CC)CCCC(C)Nc1ccnc2cc(Cl)ccc12 (stereo not shown) What is its recorded pIC50?
Response line: 8.38
